System: TO-N3 (biotin conjugate)
Assay: pull-down binding Z-score (relative to library population); higher = stronger binding
Settings: RNA library: Library-2
Returns one of class 1 or class 0; class 1 when pull-down binding Z-score is >= -0.3.

# Macromolecule Sequence, Label
records = [
    ("CACUCAGUAAAUAUUUGUUGAGUG [hsa-mir-1271]", "class 0"),
    ("GGUCCAGAACAAACCCAAGGAAAUUUUGGGGACC", "class 1"),
    ("GAGGUAAGUAUGAUACUUACCUG [U1snRNP5ss-8]", "class 0"),
    ("CAGAGUGGGCUCACCUCUCGCCCACACUG [hsa-mir-6760]", "class 0"),
    ("UAGGGCUGGAUGGUAGGGCCCA [hsa-mir-6890]", "class 1"),
    ("GGGGACGACCU [IAV_invivo_NA_6_Motif_17+IAV_invivo_NA_6_Motif_17]", "class 1"),
    ("CCUGCAGCCCCCAGGUGGGGGG [hsa-mir-4271]", "class 1"),
    ("CAUCGUUGAUAGUG [SHAPE_invitro_SARS-CoV-2_Motif_152]", "class 1"),
    ("CAGUGGCAUCUGUCAUUG [hsa-mir-4663]", "class 0"),
    ("CUGGGGAGCCGGACAGCUCCCUUCCCAG [hsa-mir-3155a]", "class 1"),
    ("CUCACGUGUGCCUGCCUGUGAG [hsa-mir-339]", "class 0"),
    ("UGUGUCAAUAUUUAAACACA", "class 1"),
    ("GCAUAUAGAGUAUAUGC [hsa-mir-4657]", "class 0"),
    ("GUAAAUUUACUUAC [DMSMaPseq_invitro_SARS-CoV-2_Motif_170]", "class 1"),
    ("GGAUAAGAAUCAGUCAC [hsa-mir-217]", "class 0"),
    ("AGAAACCUACUUAUUACAUAGUUUACAUAAGAAGCGUGAU [hsa-mir-1322]", "class 1"),
    ("GGAAAGGGGAUGCAGAGCCCUGCC [hsa-mir-4647]", "class 1"),
    ("CCUUUAGUACCUUUCUGGAUAACAAUUGCUUAUAUCAUUUGUAUUUCCACAAAGCAUUUCUAUUGG", "class 0"),
    ("GUGUCUGGCCCCAGCAGCCCAGACU [hsa-mir-6751]", "class 1"),
    ("GGAGAUUGGAGUGGCCAGUGUUCCUAAACAAUUC [hsa-mir-4263]", "class 1"),
    ("AGCUGUUGGCCAUGGCGACAACACCU [hsa-mir-6742]", "class 1"),
]

----------
Here the recorded pull-down binding Z-score is given for each entry.
Test system: TO-N3 (biotin conjugate)
Experiment: pull-down binding Z-score (relative to library population); higher = stronger binding
Details: RNA library: Library-2

# Macromolecule Sequence, Target Of Assay, pull-down binding Z-score
rows = [
    ("UCAGCCCCAUAUGUAUCUGAAGGCUGA [hsa-mir-5694]", "TO-N3 (biotin conjugate)", -0.337),
    ("GUGAGCUCAGCUCCCUGCCUCAC [hsa-mir-3622b]", "TO-N3 (biotin conjugate)", 0.138),
    ("UCGUCAAUAGGGCGA [IAV_invivo_PB2_1_Motif_18+IAV_invivo_PB2_1_Motif_18]", "TO-N3 (biotin conjugate)", -0.554),
    ("GGGUCAGUGGCAGAGCCAGGCAGAUGCUGACCC [hsa-mir-6832]", "TO-N3 (biotin conjugate)", 0.45),
    ("AACGGGGCGGGCCGGGGGCGGGGUAA [G4_2A2_VEGF-Pu22]", "TO-N3 (biotin conjugate)", 6.62),
    ("GUUGAUUUUUGUGGAAAGGGCUAUCAUCUUAUGUCCUUCCCUCAGUCAGC [SHAPE_invitro_SARS-CoV-2_Motif_447]", "TO-N3 (biotin conjugate)", -1.18),
    ("UAUGUGAUUCUACUGCUCACUCAUAUA [hsa-mir-135a-1]", "TO-N3 (biotin conjugate)", 0.212),
    ("ACGACGACUACUAGCGUGCCUUUGUAAGCACAAGCUGAUGAGUACGAACUUAUGUACUCAUUCGUUUCGGAAGAGACAGGUACGUUAAUAGUUAAUAGCGU", "TO-N3 (biotin conjugate)", -0.304),
    ("GGCAGGAGGCAGUGAAGUAACUUGC [hsa-mir-3934]", "TO-N3 (biotin conjugate)", 1.43),
]

----------
System: TO-N3 (biotin conjugate)
Assay: pull-down binding Z-score (relative to library population); higher = stronger binding
Details: RNA library: Library-2
# Lookup of reported pull-down binding Z-score keyed by entry

# Macromolecule Sequence, pull-down binding Z-score
data = [
    ("GUCUUUCCAGGGGC [IAV_invivo_NP_5_Motif_23+IAV_invivo_NP_5_Motif_23]", -0.393),
    ("GCCAUUGCCGGU [IAV_invivo_HA_4_Motif_15+IAV_invivo_HA_4_Motif_15]", -0.593),
    ("GUACUUGGUAGUUUAGCUGCCACAGUAC", -0.688),
    ("GGGGCCUGUGGUCCC [hsa-mir-1268a]", -0.282),
    ("GGCUCGUCUGUGUUGCCAAUCGACUC [hsa-mir-1307]", 0.973),
    ("ACCGGUGGAAUUGCUAUCGCAAUGGCUUGUCUUGUAGGCUUGAUGUGGCUCAGCUACUUCAUUGCUUCUUUCAGACUGUUUGCGCGUACGCGUUCCAUGUGGU", 1.07),
    ("UUCUGUUGUCUGAAAGAAACCAA [hsa-mir-518d]", -0.0135),
    ("ACGAUAUAUAUACUGCCCUGCUUUUAUACAUACAUACAUACAUACCUAUAUCGU [hsa-mir-4536-1]", -0.734),
    ("UGAAUAUGUAAUAUAAGUGUAUUG [hsa-mir-450b]", 0.261),
    ("CUCUGGUCUAUAAUGGGUUAAAUAGUAGAG [hsa-mir-609]", -0.191),
    ("ACCAUAGUCAUAAGUUAGGAGAUGUUAGAGCUGUGAGU [hsa-mir-4286]", -0.108),
    ("UAGACAAUGGUUUCAUCAUUUCGUCUG [hsa-mir-4427]", -0.379),
    ("UUUGCUGUUGAACGUAGUGGUAA [hsa-mir-548ar]", 0.407),
    ("UAGAUACUCAGGAGGGUGAGUAUCUA [hsa-mir-5689]", -0.797),
    ("GAAAAAUCCCUGUUAACUUUC [hsa-mir-6833]", -0.225),
    ("GGUAAAAUUGUUAAUAAUUGGUUGAAGCAGUUAAUUAAAGUUACACUUGUGUUCCUUUUUGUUGCUGCUAUUUUCUAUUUAAUAACACC [DMSMaPseq_invitro_SARS-CoV-2_Motif_156]", -0.828),
    ("UUACUCACCCUCUCAAAACCGAGACUCAGAGACGUUGGGUAA [hsa-mir-7973-2]", -0.0759),
    ("GCCCCAGGGCAGGGGC [hsa-mir-4515]", -0.583),
    ("CUGCACUGUUAGCGGGUACAAUCACUUCUGGUUGGACCUUUGGUGCAG [SHAPE_invitro_SARS-CoV-2_Motif_437]", -0.574),
]

----------
System: TO-3-N3-2 (biotin conjugate)
Assay: pull-down binding Z-score (relative to library population); higher = stronger binding
Settings: RNA library: Library-2
Label 0 if pull-down binding Z-score falls below -0.3; label 1 in every other case.

# Macromolecule Sequence, Label
records = [
    ("GACAGGCUGGCCUCUGGAUGACCUGC [hsa-mir-5189]", 1),
    ("AGCUGUGAAAGUCCUAGCU [hsa-mir-1256]", 1),
    ("CCGGCCCGUUAGUUGCCCGGGCCCG [hsa-mir-3181]", 0),
    ("UUGUAAUAGUGUAGAAUGUUGGUUAAC [hsa-mir-591]", 1),
    ("CAAGUAAAAGGAAUUUUCAUUUUCCAGCCCCUAAUUG [hsa-mir-6739]", 0),
    ("CUGGCUUCUCUGGUUCUCCAGCUUACAG [hsa-mir-1269b]", 0),
    ("UGUGUACACACA [SHAPE_invivo_SARS-CoV-2_Motif_249]", 0),
    ("GGGUCGUGGGAAAGUGUUGACCC [hsa-mir-4655]", 1),
    ("UCACAGUUGGUUUCUGACACGUGG [hsa-mir-4535]", 1),
    ("GGGAAGGAGAAGGGACGCUUCCC [hsa-mir-3127]", 1),
    ("GGAGAGGAUCCACCUGUCCUGUCC [hsa-mir-6165]", 1),
    ("CCAUGGGGGCCUUGCUGUGU [hsa-mir-6808]", 1),
    ("UGGUGGGAGAGGAGCCCCACUGUGGAAGUCUGACCCCCACA [hsa-mir-6785]", 1),
    ("GUUCUCUAAACGAAC", 0),
    ("GUAUACUGAGCUUAUGUAUGCAUCUGCAUAC [hsa-mir-5591]", 1),
    ("CCAAGGAAAUUUUGG", 0),
    ("AACGAACUUUAAAAUCUGUGUGGCUGUCACUCGGCUGCAUGCUUAGUGCACUCACGCAGUAUAAUUAAUAACUAAUUACUGUCGUU", 1),
    ("AUGUUUGUCAAACAUAAGCAU [DMSMaPseq_invitro_SARS-CoV-2_Motif_200]", 0),
    ("UCACAAUUGCGCUACAGAACUGUUGA [hsa-mir-203b]", 1),
    ("GGGACAUUGCGGAGAGGGUCUCACAUUGUCCC [hsa-mir-4646]", 1),
    ("GGGCUGCCCGGGCCGGUCGACCAGCGCGCCGUAGCUCC [hsa-mir-6724-2_6724-3_6724-1_6724-4]", 1),
    ("AGAACAGAUAUAUCCACAGUACACUUGGCUGUUCU [hsa-mir-4753]", 0),
    ("GCGCAGCCAGAAACUGGCGGCGC [mismatch-AG]", 1),
    ("CUCAGGACAGCGGGUGUCAGCUUGCCUGAC [hsa-mir-6859-1_6859-3_6859-2_6859-4]", 1),
    ("CCUAUACUGUUACUAGAUCAGGCAUUAGUGUCUGAUGUUGGUGAUAGUGCGG [DMSMaPseq_invitro_SARS-CoV-2_Motif_147]", 1),
    ("UAAUGCUCUGAAAAUGACUCCAAUCAUUA [hsa-mir-3202-2]", 1),
    ("CAUUACUUUAUGAUG [SHAPE_invitro_SARS-CoV-2_Motif_468]", 1),
    ("CUUUCUGUUGUCUAAAAGAAAAGAACG [hsa-mir-521-1]", 1),
    ("GGGAGUCUUCGAGCUCUC [IAV_invivo_NP_5_Motif_24+IAV_invivo_NP_5_Motif_24]", 0),
    ("AAGUGGAGCAGGAAUGCGCUUUUCUCCACUG [hsa-mir-5187]", 1),
    ("GUGGUUUCAGGGCAGUGAUGUUGCCCCUCGGAAGAUAACUAU [hsa-let-7b]", 1),
    ("ACCUGUGUGUGCCCAAGUGUUUCUAGCAAACACAGGG [hsa-mir-3649]", 1),
    ("UGGUAUCCUGACCG [hsa-mir-1973]", 1),
    ("UGGCCAUUUCCUACCA [hsa-mir-617]", 0),
    ("GGAGACAGGUGGUUUCUCAAUCGAUUUACCACAACUCU [SHAPE_invivo_SARS-CoV-2_Motif_209]", 0),
    ("GCCUGCGGGCAGGAAGCGGA [hsa-mir-3928]", 1),
    ("CUGCUUUUGGCUUAGUUGCAG", 1),
    ("UGUGCCCCGUACCGGACAGG [hsa-mir-7160]", 1),
    ("CUGCUCUCCCUGGCAGCAAG [hsa-mir-7109]", 1),
    ("CAGGUACAGUAGAUACUUACCUG [U1snRNP5ss-19]", 0),
    ("ACUAAAAUAAAACCUCAUAAUUCACAUGAAGGUAAAACAUUUUAUGUUUUACCUAAUGAUGACACUCUACGUGUUGAGGCUUUUGAGU [DMSMaPseq_invitro_SARS-CoV-2_Multi_18_ComplexLevel_1]", 1),
]

These data points were gathered from the supplement of paper PMC11865577.
